The measurements presented in this section are drawn from the supplement of paper PMC11246515.

experiment_notes: total protein half-life in vivo (active degradation + dilution); higher = more stable protein
condition_description: wild type E. coli NCM3722; growth: P-lim chemostat; doubling time 12 h
readout_kind: total protein half-life in vivo (h)

sequence_code	readout_kind	recorded_measurement
MAEVTQLKRYDARPINWGKWFLIGIGMLVSAFILLVPMIYIFVQAFSKGLMPVLQNLADPDMLHAIWLTVMIALIAVPVNLVFGILLAWLVTRFNFPGRQLLLTLLDIPFAVSPVVAGLVYLLFYGSNGPLGGWLDEHNLQIMFSWPGMVLVTIFVTCPFVVRELVPVMLSQGSQEDEAAILLGASGWQMFRRVTLPNIRWALLYGVVLTNARAIGEFGAVSVVSGSIRGETLSLPLQIELLEQDYNTVGSFTAAALLTLMAIITLFLKSMLQWRLENQEKRAQQEEHHEH [P0AEB0]	total protein half-life in vivo	10.7
MTTLAIDIGGTKLAAALIGADGQIRDRRELPTPASQTPEALRDALSALVSPLQAHAQRVAIASTGIIRDGSLLALNPHNLGGLLHFPLVKTLEQLTNLPTIAINDAQAAAWAEFQALDGDITDMVFITVSTGVGGGVVSGCKLLTGPGGLAGHIGHTLADPHGPVCGCGRTGCVEAIASGRGIAAAAQGELAGADAKTIFTRAGQGDEQAQQLIHRSARTLARLIADIKATTDCQCVVVGGSVGLAEGYLALVETYLAQEPAAFHVDLLAAHYRHDAGLLGAALLAQGEKL	total protein half-life in vivo	10.5
MKRASLLTLTLIGAFSAIQAAWAVDYPLPPTGSRLVGQNQTYTVQEGDKNLQAIARRFDTAAMLILEANNTIAPVPKPGTTITIPSQLLLPDAPRQGIIVNLAELRLYYYPPGENIVQVYPIGIGLQGLETPVMETRVGQKIPNPTWTPTAGIRQRSLERGIKLPPVVPAGPNNPLGRYALRLAHGNGEYLIHGTSAPDSVGLRVSSGCIRMNAPDIKALFSSVRTGTPVKVINEPVKYSVEPNGMRYVEVHRPLSAEEQQNVQTMPYTLPAGFTQFKDNKAVDQKLVDKALYRRAGYPVSVSSGATPAASNAPSVESAQNGEPEQGNMLRVTQ	total protein half-life in vivo	11.2
